Data credit: patent US9006464B2

Exercise: for every item that follows, state its recorded pEC50.
Target: UniProt Q13258
Sequence (Q13258 whole entry): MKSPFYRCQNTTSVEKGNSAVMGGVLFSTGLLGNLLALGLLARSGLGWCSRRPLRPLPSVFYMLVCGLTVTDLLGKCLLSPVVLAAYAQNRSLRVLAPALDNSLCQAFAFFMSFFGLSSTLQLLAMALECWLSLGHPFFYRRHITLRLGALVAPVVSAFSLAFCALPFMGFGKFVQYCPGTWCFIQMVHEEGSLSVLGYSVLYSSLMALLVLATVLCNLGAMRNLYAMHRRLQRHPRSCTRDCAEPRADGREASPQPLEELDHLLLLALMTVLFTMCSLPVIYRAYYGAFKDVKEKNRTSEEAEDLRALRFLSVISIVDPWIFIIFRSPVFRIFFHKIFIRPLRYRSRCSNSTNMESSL
Experiment: Other receptors Ca2+ assay, DP
Conditions: DP receptor
From the text: U.S. patent application Ser. No. 11/553,143, filed on Oct. 26, 2006, incorporated by reference herein, describes the methods used to obtain the in vitro data in Table 1 below.
Scale: pEC50 equals -log10([C]), with [C] in mol/L.

Which pEC50 value belongs to C=CCCCCCC[C@@H]1[C@@H](CCCc2ccc(C(=O)O)s2)[C@H](Cl)C[C@H]1O ?
5.49

Fill blank: measured pEC50 of the compound CCCCCCCC[C@@H]1[C@@H](CCCc2ccc(C(=O)O)s2)[C@H](Cl)C[C@H]1O is ____.
5.17

Entry CCCCCCC[C@@H]1[C@@H](CCCc2ccc(C(=O)O)s2)[C@H](Cl)C[C@H]1O has what pEC50?
5.65

pEC50 for CCCC=C[C@@H]1[C@@H](CCCc2ccc(C(=O)O)s2)[C@H](Cl)C[C@H]1O ?
6.24

====

Molecular target: EP2 (Homo sapiens)
Experiment: EP2 Ca2+ signal assay
Type: cell-based
Answer each item with its documented EC50.
Give the value, in units of µM, as a plain number.

GET /values?readout=EC50&item= CCCCCC(O)/C=C/[C@@H]1[C@@H](CCCc2ccc(C(=O)O)s2)[C@H](Cl)C[C@H]1O (single isomer, unassigned) [Entry 15]
0.0008

// returns reported EC50 for input CCCC=C[C@@H]1[C@@H](CCCc2ccc(C(=O)O)s2)[C@H](Cl)C[C@H]1O
0.303

Endpoint output: EC50 of O=C(O)c1ccc(CCC[C@@H]2[C@@H](CCCCCCCO)[C@H](O)C[C@H]2Cl)s1 . Value?
0.01

Which measured EC50 value corresponds to CCCCCC[C@@H]1[C@@H](CCCc2ccc(C(=O)O)s2)[C@H](Cl)C[C@H]1O ?
0.405

Return reported EC50; argument: CCCCCCC[C@@H]1[C@@H](CCCc2ccc(C(=O)O)s2)[C@H](Cl)C[C@H]1O
0.067

If you can, please state the reported EC50 value of CCCCCCCCCC[C@@H]1[C@@H](CCCc2ccc(C(=O)O)s2)[C@H](Cl)C[C@H]1O .
1.16

// query EC50 value for entry CCCCCCCC[C@@H]1[C@@H](CCCc2ccc(C(=O)O)s2)[C@H](Cl)C[C@H]1O
0.011

Which EC50 value is on record for CCCC/C=C/CC[C@@H]1[C@@H](CCCc2ccc(C(=O)O)s2)[C@H](Cl)C[C@H]1O ?
0.051

Given O=C(O)c1ccc(CCC[C@@H]2[C@@H](C=CCCCCCO)[C@H](O)C[C@H]2Cl)s1 , state its recorded EC50.
0.046

What measured EC50 goes with CCCCCC=C[C@@H]1[C@@H](CCCc2ccc(C(=O)O)s2)[C@H](Cl)C[C@H]1O ?
0.112

====

Molecular target: EP3 (Homo sapiens)
Sequence (P43115 whole entry): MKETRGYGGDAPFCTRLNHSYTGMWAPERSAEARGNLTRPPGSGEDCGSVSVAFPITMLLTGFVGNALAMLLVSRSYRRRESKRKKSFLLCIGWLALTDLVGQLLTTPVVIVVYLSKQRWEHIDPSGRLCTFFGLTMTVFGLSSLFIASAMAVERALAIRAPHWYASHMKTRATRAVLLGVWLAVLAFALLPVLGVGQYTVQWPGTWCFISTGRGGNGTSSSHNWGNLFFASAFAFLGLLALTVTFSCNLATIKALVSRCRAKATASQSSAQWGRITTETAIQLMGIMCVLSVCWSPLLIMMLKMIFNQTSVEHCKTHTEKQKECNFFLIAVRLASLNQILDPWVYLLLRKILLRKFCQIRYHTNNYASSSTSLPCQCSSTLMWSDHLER
Experiment: Other receptors Ca2+ assay, EP3
Assay type: cell-based
Conditions: EP3 receptor
quantityKind: pEC50
In textbook form, pEC50 equals minus log to base ten of the concentration in mol/L.

What value of pEC50 has been reported for the following compound? CCCCCCCC=C[C@@H]1[C@@H](CCCc2ccc(C(=O)O)s2)[C@H](Cl)C[C@H]1O [Entry 14]
5.52

Which value of pEC50 has been reported for CCCCCCCCC[C@@H]1[C@@H](CCCc2ccc(C(=O)O)s2)[C@H](Cl)C[C@H]1O [Entry 5] in the records?
5.18

Quick check: pEC50 of CCCCCC(O)/C=C/[C@@H]1[C@@H](CCCc2ccc(C(=O)O)s2)[C@H](Cl)C[C@H]1O (single isomer, unassigned) [Entry 15] ?
8.22

Given the entry CCCC=C[C@@H]1[C@@H](CCCc2ccc(C(=O)O)s2)[C@H](Cl)C[C@H]1O [Entry 7] , report its measured pEC50.
5.94

Using the record for CCCCCC[C@@H]1[C@@H](CCCc2ccc(C(=O)O)s2)[C@H](Cl)C[C@H]1O [Entry 2] , report its pEC50.
5.22

Endpoint output: pEC50 of CCCCCCC[C@@H]1[C@@H](CCCc2ccc(C(=O)O)s2)[C@H](Cl)C[C@H]1O [Entry 3] . Value?
5.18

Please look up its pEC50: CCCCCC=C[C@@H]1[C@@H](CCCc2ccc(C(=O)O)s2)[C@H](Cl)C[C@H]1O [Entry 8]
6.26

Look up pEC50: CCCCCCCC[C@@H]1[C@@H](CCCc2ccc(C(=O)O)s2)[C@H](Cl)C[C@H]1O [Entry 4]
5.02

Value lookup for pEC50; key = CCCCCC(O)/C=C/[C@@H]1[C@@H](CCCc2ccc(C(=O)O)s2)[C@H](Cl)C[C@H]1O (single isomer, unassigned) [Entry 16]
6.38

Fill in the blank: the reported pEC50 of C=CCCCCCC[C@@H]1[C@@H](CCCc2ccc(C(=O)O)s2)[C@H](Cl)C[C@H]1O [Entry 12] is ____.
5.30

Can you look up the measured pEC50 of CCCCC[C@@H]1[C@@H](CCCc2ccc(C(=O)O)s2)[C@H](Cl)C[C@H]1O [Entry 1] for me?
5.76

Dear colleague, I am looking for the recorded pEC50 of the following compound: CCCC/C=C/CC[C@@H]1[C@@H](CCCc2ccc(C(=O)O)s2)[C@H](Cl)C[C@H]1O [Entry 18]
6.23

====

Biological target: EP1 (Homo sapiens)
Sequence (P34995 whole entry): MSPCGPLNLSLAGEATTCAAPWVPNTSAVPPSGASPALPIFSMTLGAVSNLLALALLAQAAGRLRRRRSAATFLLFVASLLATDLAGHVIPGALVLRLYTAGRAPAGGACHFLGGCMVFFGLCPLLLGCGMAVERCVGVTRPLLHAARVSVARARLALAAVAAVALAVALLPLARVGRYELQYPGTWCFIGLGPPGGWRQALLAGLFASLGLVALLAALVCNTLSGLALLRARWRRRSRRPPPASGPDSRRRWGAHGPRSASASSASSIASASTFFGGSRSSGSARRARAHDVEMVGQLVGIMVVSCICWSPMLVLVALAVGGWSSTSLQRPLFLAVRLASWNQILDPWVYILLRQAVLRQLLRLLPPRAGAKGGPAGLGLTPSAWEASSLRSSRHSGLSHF
Experiment: Other receptors Ca2+ assay, EP1
Conditions: EP1 receptor
Kindly state log10 of EC50 for each of the entries shown.
Annotation: log10 of EC50, µM basis.

I'd like to know its log10 of EC50. The compound in question is CCCC/C=C/CC[C@@H]1[C@@H](CCCc2ccc(C(=O)O)s2)[C@H](Cl)C[C@H]1O
0.69

Need log10 of EC50, item C=CCCCCCC[C@@H]1[C@@H](CCCc2ccc(C(=O)O)s2)[C@H](Cl)C[C@H]1O
-0.05

What measured log10 of EC50 goes with CCCCCC(O)/C=C/[C@@H]1[C@@H](CCCc2ccc(C(=O)O)s2)[C@H](Cl)C[C@H]1O (single isomer, unassigned) [Entry 16] ?
-1.07

Tell me the measured log10 of EC50 of CCCCCCC[C@@H]1[C@@H](CCCc2ccc(C(=O)O)s2)[C@H](Cl)C[C@H]1O , please.
0.53

I have this compound here, CCCCCCCC[C@@H]1[C@@H](CCCc2ccc(C(=O)O)s2)[C@H](Cl)C[C@H]1O , and I need its recorded log10 of EC50.
1.26

What does the record list as log10 of EC50 for CCCCCC(O)/C=C/[C@@H]1[C@@H](CCCc2ccc(C(=O)O)s2)[C@H](Cl)C[C@H]1O (single isomer, unassigned) [Entry 15] ?
-2.89

====

Molecular target: EP2 (Homo sapiens, UniProt P43116)
Sequence (P43116 whole entry): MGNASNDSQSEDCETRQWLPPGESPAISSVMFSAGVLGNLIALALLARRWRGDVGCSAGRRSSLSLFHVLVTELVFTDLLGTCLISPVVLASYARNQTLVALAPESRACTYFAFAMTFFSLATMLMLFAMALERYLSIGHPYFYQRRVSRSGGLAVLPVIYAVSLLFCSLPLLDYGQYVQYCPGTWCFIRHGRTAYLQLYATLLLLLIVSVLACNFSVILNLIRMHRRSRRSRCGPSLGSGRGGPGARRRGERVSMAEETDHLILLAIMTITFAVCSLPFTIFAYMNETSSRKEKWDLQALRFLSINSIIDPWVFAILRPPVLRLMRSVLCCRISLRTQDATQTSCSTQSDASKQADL
quantityKind: Ki (nM)
Write the answer as a number in nM, unit excluded.

Field: Ki (EP2 (Homo sapiens, UniProt P43116)). Entry: CCCCC[C@@H]1[C@@H](CCCc2ccc(C(=O)O)s2)[C@H](Cl)C[C@H]1O [Entry 1]
6

// lookup Ki | system=EP2 (Homo sapiens, UniProt P43116) | key= CCCCCCCC=C[C@@H]1[C@@H](CCCc2ccc(C(=O)O)s2)[C@H](Cl)C[C@H]1O [Entry 14]
6

// map CCCCCCCCCC[C@@H]1[C@@H](CCCc2ccc(C(=O)O)s2)[C@H](Cl)C[C@H]1O [Entry 19] to recorded Ki (system: EP2 (Homo sapiens, UniProt P43116))
6

Provide the documented Ki with EP2 (Homo sapiens, UniProt P43116) as the system for O=C(O)c1ccc(CCC[C@@H]2[C@@H](C=CCCCCCCO)[C@H](O)C[C@H]2Cl)s1 [Entry 6]
37

Any idea what Ki came out for CCCCCCCCC[C@@H]1[C@@H](CCCc2ccc(C(=O)O)s2)[C@H](Cl)C[C@H]1O [Entry 5] on EP2 (Homo sapiens, UniProt P43116)?
1.5

Record CCCCCC[C@@H]1[C@@H](CCCc2ccc(C(=O)O)s2)[C@H](Cl)C[C@H]1O [Entry 2] : what is its Ki with EP2 (Homo sapiens, UniProt P43116)?
4

Give EP2 (Homo sapiens, UniProt P43116) Ki for CCCC/C=C/CC[C@@H]1[C@@H](CCCc2ccc(C(=O)O)s2)[C@H](Cl)C[C@H]1O [Entry 18]
18

====

Molecular target: EP4 (Homo sapiens, UniProt P35408)
Sequence (P35408 whole entry): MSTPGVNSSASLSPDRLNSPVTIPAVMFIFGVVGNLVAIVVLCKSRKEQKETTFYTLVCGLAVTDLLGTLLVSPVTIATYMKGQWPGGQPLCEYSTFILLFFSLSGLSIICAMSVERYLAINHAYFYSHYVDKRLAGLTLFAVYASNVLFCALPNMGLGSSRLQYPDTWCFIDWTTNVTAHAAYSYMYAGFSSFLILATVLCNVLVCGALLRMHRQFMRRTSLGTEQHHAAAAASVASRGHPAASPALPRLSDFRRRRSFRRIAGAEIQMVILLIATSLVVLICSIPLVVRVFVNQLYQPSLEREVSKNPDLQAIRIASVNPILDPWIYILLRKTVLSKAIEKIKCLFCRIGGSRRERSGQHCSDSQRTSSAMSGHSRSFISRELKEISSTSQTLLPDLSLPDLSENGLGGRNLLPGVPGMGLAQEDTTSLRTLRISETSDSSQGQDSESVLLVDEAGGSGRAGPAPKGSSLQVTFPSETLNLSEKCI
# strict inequality: Ki < 700 nM yields condition met, everything else yields condition not met

Quick check: Ki of O=C(O)c1ccc(CCC[C@@H]2[C@@H](C=CCCCCCO)[C@H](O)C[C@H]2Cl)s1 under 700 nM?
condition not met

Is it true that Ki reported for CCCCCCCC=C[C@@H]1[C@@H](CCCc2ccc(C(=O)O)s2)[C@H](Cl)C[C@H]1O is less than 700 nM?
condition not met

Please let me know if CCCCCCCCC[C@@H]1[C@@H](CCCc2ccc(C(=O)O)s2)[C@H](Cl)C[C@H]1O shows Ki below 700 nM.
condition not met

Criterion: Ki strictly below 700 nM. Is it met by CCCCCCC[C@@H]1[C@@H](CCCc2ccc(C(=O)O)s2)[C@H](Cl)C[C@H]1O ?
condition met

Problem: For the compound CCCCCC(O)/C=C/[C@@H]1[C@@H](CCCc2ccc(C(=O)O)s2)[C@H](Cl)C[C@H]1O (single isomer, unassigned) [Entry 15] , is Ki under 700 nM?
condition met

Please let me know if CCCCCC(O)/C=C/[C@@H]1[C@@H](CCCc2ccc(C(=O)O)s2)[C@H](Cl)C[C@H]1O (single isomer, unassigned) [Entry 16] shows Ki below 700 nM.
condition met
